- SYSTEM UNDER TEST: MAGE-A11:PCF11 interaction (GST-MAGE-A11 and FAM-PCF11_4) (Homo sapiens, UniProt P43364)
- Construct: GST-MAGE-A11 MHD (human MAGE-A11 MHD amino acid 218-429); made in house; host or cells: E. coli BL21(DE3)
- Sequence (P43364 218-429): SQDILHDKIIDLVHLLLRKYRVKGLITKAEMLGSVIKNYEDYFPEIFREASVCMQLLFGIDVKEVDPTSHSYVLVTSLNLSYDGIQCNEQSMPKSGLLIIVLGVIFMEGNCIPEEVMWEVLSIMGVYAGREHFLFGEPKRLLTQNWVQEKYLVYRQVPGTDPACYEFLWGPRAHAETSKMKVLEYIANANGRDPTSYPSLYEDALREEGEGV
- PROTOCOL SUMMARY: TR-FRET primary / single point screen at 15 µM
- Format: binding
- CONDITION CONTEXT: single point TR-FRET screening of quinoline compounds against MAGE-A11:PCF11; 15 µM
- Method: The TR-FRET assay buffer with a formula of 50 mM Tris pH 7.5, 20 mM MgCl2, 0.1 mg/ml BSA and 1 mM DTT was freshly prepared before each experiment. […] After incubation, the fluorescent emission signals at 520 nm and 490 nm channels of individual wells were measured with a PHERAstar FS plate reader (BMG Labtech; Durham, NC, USA) by using a 340 nm excitation filter, 100 µs delay time, and 200 µs integration time. […] The TR-FRET signals for individual wells were measured with a PHERAstar FS plate reader. […]
REPORTED METRIC: percent inhibition (TR-FRET)
Write the number on its own, no unit after it.

Some compounds with known percent inhibition (TR-FRET) results, for comparison:
CCCN(CCCNc1ccnc2cc(Cl)ccc12)Cc1[nH]cnc1C [SJ000523010] : 12.0487
CCCCCN(CCC)CCCNc1ccnc2cc(C(F)(F)F)ccc12 [SJ000361271] : 30.9303
CN(C)c1cccc(Oc2ccc3c(NCCCNCc4ccco4)ccnc3c2)c1 [SJ000311230] : 63.4168
Clc1ccc2c(NCCCN(Cc3ccccc3)Cc3csc4ccccc34)ccnc2c1 [SJ000520454] : 28.1386

stdin: Name the recorded percent inhibition (TR-FRET) of the item CCCN(CCCNc1ccnc2cc(Cl)ccc12)Cc1cc2ccccc2o1 [SJ000522991] in your answer.
stdout: 9.295

* * *

- SYSTEM UNDER TEST: MAGE-A11:PCF11 interaction (GST-MAGE-A11 and FAM-PCF11_4) (Homo sapiens, UniProt P43364)
- Construct: GST-MAGE-A11 MHD (human MAGE-A11 MHD amino acid 218-429); made in house; host or cells: E. coli BL21(DE3)
- PROTOCOL SUMMARY: TR-FRET primary / single point screen at 15 µM
- Format: binding
- CONDITION CONTEXT: single point TR-FRET screening of quinoline compounds against MAGE-A11:PCF11; 15 µM
- Protocol: The TR-FRET assay buffer with a formula of 50 mM Tris pH 7.5, 20 mM MgCl2, 0.1 mg/ml BSA and 1 mM DTT was freshly prepared before each experiment. […] After incubation, the fluorescent emission signals at 520 nm and 490 nm channels of individual wells were measured with a PHERAstar FS plate reader (BMG Labtech; Durham, NC, USA) by using a 340 nm excitation filter, 100 µs delay time, and 200 µs integration time. […] The TR-FRET signals for individual wells were measured with a PHERAstar FS plate reader. […]
REPORTED METRIC: percent inhibition (TR-FRET)

Some compounds with known percent inhibition (TR-FRET) results, for comparison:
COc1ccc(OC(F)(F)F)cc1CN(CCCNc1ccnc2cc(Cl)ccc12)Cc1ccccc1 : 20.4443
CCCN(CCCNc1ccnc2cc(C(F)(F)F)ccc12)Cc1ccc(CC)cc1 : 31.7696
FC(F)(F)c1ccc2c(NCCCNCC3CC3)ccnc2c1 : 22.8076
CCCN(CCCNc1ccnc2cc(C(F)(F)F)ccc12)CC1CCCCC1 : 33.314

stdin: Name the recorded percent inhibition (TR-FRET) of the item FC(F)(F)c1ccc2c(NCCCNCc3csc4ccccc34)ccnc2c1 in your answer.
stdout: 41.8599

stdin: Name the recorded percent inhibition (TR-FRET) of the item O=[N+]([O-])c1ccccc1CN(CCCNc1ccnc2cc(Cl)ccc12)Cc1ccccc1 in your answer.
stdout: 16.421

stdin: Name the recorded percent inhibition (TR-FRET) of the item CCCN(CCCNc1ccnc2cc(Cl)ccc12)Cc1ccsc1 in your answer.
stdout: 7.824

stdin: Name the recorded percent inhibition (TR-FRET) of the item CCCN(CCCNc1ccnc2cc(Cl)ccc12)Cc1ccc(-c2ccccc2[N+](=O)[O-])o1 in your answer.
stdout: 9.266

stdin: Name the recorded percent inhibition (TR-FRET) of the item FC(F)(F)c1ccc(-c2ccc3c(NCCCNCc4ccco4)ccnc3c2)cc1 in your answer.
stdout: 56.2051

* * *

- SYSTEM UNDER TEST: MAGE-A11:PCF11 interaction (GST-MAGE-A11 MHD and FAM-PCF11_4) (Homo sapiens, UniProt P43364)
- Construct: GST-MAGE-A11 MHD (human MAGE-A11 MHD amino acid 218-429); made in house; host or cells: E. coli BL21(DE3)
- Sequence (P43364 218-429): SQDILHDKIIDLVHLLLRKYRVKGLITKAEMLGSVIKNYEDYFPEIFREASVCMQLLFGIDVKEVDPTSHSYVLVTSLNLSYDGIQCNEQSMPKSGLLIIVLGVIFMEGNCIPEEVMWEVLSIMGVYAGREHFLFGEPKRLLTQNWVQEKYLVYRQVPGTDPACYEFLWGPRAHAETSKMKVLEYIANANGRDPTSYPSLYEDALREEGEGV
- PROTOCOL SUMMARY: TR-FRET dose response test of compounds for disruption of MAGE-A11:PCF11 binding
- CONDITION CONTEXT: Supplementary Data 4; read-out: TR-FRET, IC50
Attribute: IC50
Note: unit nM is implicit; provide only the numeric part.

Some molecules with known IC50 results, for comparison:
COc1ccc(F)cc1CNCCCNc1ccnc2cc(-c3ccc(C(F)(F)F)cc3)ccc12 [SJ000311281-01] : 5580
CC(C)(C)c1ccc(-c2ccc3c(NCCCNCc4ccc5[nH]ccc5c4)ccnc3c2)cc1 [SJ001008068-01] : 130
FC(F)(F)c1cc(-c2ccc3c(NCCCNCc4ccco4)ccnc3c2)cc(C(F)(F)F)c1 [SJ000311270-01] : 580

Consider the record given below.
stdin: Name the recorded IC50 of the item C=CC(=O)N(CCCNc1ccnc2ccccc12)Cc1ccc2[nH]ccc2c1 [SJ001009807-01] in your answer.
stdout: 3500

* * *

- SYSTEM UNDER TEST: MAGE-A11:PCF11 interaction (GST-MAGE-A11 and FAM-PCF11_4) (Homo sapiens, UniProt P43364)
- Construct: GST-MAGE-A11 MHD (human MAGE-A11 MHD amino acid 218-429); made in house; host or cells: E. coli BL21(DE3)
- Sequence (P43364 218-429): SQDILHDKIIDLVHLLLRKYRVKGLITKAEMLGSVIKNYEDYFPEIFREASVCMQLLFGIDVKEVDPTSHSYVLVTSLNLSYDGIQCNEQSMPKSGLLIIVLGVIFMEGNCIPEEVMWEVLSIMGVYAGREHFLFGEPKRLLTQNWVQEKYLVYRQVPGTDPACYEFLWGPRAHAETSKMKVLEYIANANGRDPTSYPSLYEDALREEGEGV
- PROTOCOL SUMMARY: TR-FRET primary / single point screen at 15 µM
- Type: binding
- CONDITION CONTEXT: single point TR-FRET screening of quinoline compounds against MAGE-A11:PCF11; 15 µM
Each entry gets 0.0 if its percent inhibition (TR-FRET) stays under 10, and 1.0 if its percent inhibition (TR-FRET) is 10 or above.

Worked examples, 4 compounds total:
CCOC(=O)c1cnc2c(C)cc(C)cc2c1NCCCN1CCOCC1 : 0.0
NC(=O)CC(Nc1c2ccccc2nc2ccccc12)C(=O)O (stereo not shown) : 1.0
FC(F)(F)c1ccc2c(NCCCNCc3cc(Br)cs3)ccnc2c1 : 1.0
CCCN(CCCNc1ccnc2cc(Cl)ccc12)Cc1ncc[nH]1 : 0.0

stdin: Confirm if percent inhibition (TR-FRET) reported for the compound CCCCN(CCCNc1ccnc2cc(Cl)ccc12)Cc1ccccc1 is 10 or above.
stdout: 1.0

stdin: Confirm if percent inhibition (TR-FRET) reported for the compound CCCN(CCCNc1ccnc2cc(C(F)(F)F)ccc12)Cc1cn(C)c2ccccc12 is 10 or above.
stdout: 1.0

stdin: Confirm if percent inhibition (TR-FRET) reported for the compound CCCN(CCCNc1c2ccc(Cl)cc2nc2ccc(OC)cc12)Cc1c(Cl)ccc(Cl)c1Cl is 10 or above.
stdout: 1.0

stdin: Confirm if percent inhibition (TR-FRET) reported for the compound CCCN(CCCNc1c2ccc(Cl)cc2nc2ccc(OC)cc12)Cc1nc2ccccc2s1 is 10 or above.
stdout: 0.0

stdin: Confirm if percent inhibition (TR-FRET) reported for the compound Fc1ccc(CN(CCCNc2ccnc3cc(Cl)ccc23)Cc2ccccc2)cc1F is 10 or above.
stdout: 1.0

stdin: Confirm if percent inhibition (TR-FRET) reported for the compound CCCN(CCCNc1ccnc2cc(C(F)(F)F)ccc12)Cc1cccc(C(F)(F)F)c1 is 10 or above.
stdout: 1.0

stdin: Confirm if percent inhibition (TR-FRET) reported for the compound FC(F)(F)c1ccccc1CN(CCCNc1ccnc2cc(Cl)ccc12)Cc1ccccc1 is 10 or above.
stdout: 0.0

stdin: Confirm if percent inhibition (TR-FRET) reported for the compound CCCN(CCCNc1ccnc2cc(C(F)(F)F)ccc12)Cc1cc(OC)ccc1F is 10 or above.
stdout: 1.0

stdin: Confirm if percent inhibition (TR-FRET) reported for the compound CCCN(CCCNc1ccnc2cc(Cl)ccc12)Cc1cc(F)ccc1OC is 10 or above.
stdout: 1.0

stdin: Confirm if percent inhibition (TR-FRET) reported for the compound c1ccc(CCc2ccc3c(NCCCNCc4ccco4)ccnc3c2)cc1 is 10 or above.
stdout: 1.0

stdin: Confirm if percent inhibition (TR-FRET) reported for the compound CC(C)CCc1ccc2c(NCCCNCc3ccco3)ccnc2c1 is 10 or above.
stdout: 1.0
